src = patent US11077100B2

Biological target: rat P2X7 (Rattus norvegicus (Rat), UniProt Q64663)
Sequence (Q64663 whole entry): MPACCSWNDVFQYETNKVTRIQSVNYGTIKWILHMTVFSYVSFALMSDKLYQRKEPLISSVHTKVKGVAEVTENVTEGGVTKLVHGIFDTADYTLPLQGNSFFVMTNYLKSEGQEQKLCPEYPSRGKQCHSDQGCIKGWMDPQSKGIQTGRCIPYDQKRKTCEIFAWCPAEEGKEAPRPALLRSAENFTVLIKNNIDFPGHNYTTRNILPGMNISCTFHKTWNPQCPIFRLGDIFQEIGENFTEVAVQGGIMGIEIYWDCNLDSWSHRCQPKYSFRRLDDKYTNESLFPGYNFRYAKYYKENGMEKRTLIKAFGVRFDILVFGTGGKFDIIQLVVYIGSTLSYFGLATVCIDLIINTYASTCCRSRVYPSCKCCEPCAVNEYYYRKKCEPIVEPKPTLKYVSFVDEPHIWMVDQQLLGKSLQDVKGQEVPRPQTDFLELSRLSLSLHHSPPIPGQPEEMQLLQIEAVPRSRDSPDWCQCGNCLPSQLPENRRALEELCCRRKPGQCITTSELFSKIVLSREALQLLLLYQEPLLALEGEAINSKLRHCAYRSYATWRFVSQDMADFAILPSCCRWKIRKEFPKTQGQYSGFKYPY
Test: Rat P2X7 functional assay (Ca2+ influx, Fluo-4, FDSS)
Conditions: HEK293 cells stably expressing rat P2X7; BzATP final 10 microM; 7-point dose-response; read-out: Antagonistic activities with respect to the rat P2X7 receptor (IC50)
Protocol: Rat P2X7 Functional Assay The functional activity of compounds was determined by measuring changes in intracellular calcium concentration using a Ca^2+-sensitive fluorescent dye, Fluo-4 (Molecular Probes). The changes in fluorescent signal were monitored by the cell imaging technology by Hamamatsu Photonics's Functional Drug Screening System (FDSS). Increases in intracellular Ca^2+ concentration were readily detected upon activation with BzATP. […]
pIC50: −log10 of the molar value.
parameter: pIC50

Before answering, review these 4 worked examples.
compound=O=C(NCc1cc(F)cc(F)c1)[C@]1(F)CC[C@H](O)c2ncccc21 target_system="rat P2X7 (Rattus norvegicus (Rat), UniProt Q64663)" parameter=pIC50 obs_value="> 6.00"
compound=C[C@]1(O)CC[C@@](F)(C(=O)NCc2ccc(F)cc2Cl)c2cccnc21 target_system="rat P2X7 (Rattus norvegicus (Rat), UniProt Q64663)" parameter=pIC50 obs_value="> 6.00"
compound=O=C(NCc1cccc(F)c1Cl)[C@]1(F)CC[C@H](O)c2ncccc21 target_system="rat P2X7 (Rattus norvegicus (Rat), UniProt Q64663)" parameter=pIC50 obs_value="> 6.00"
compound="O=C(NCc1cccc(C(F)(F)F)c1Cl)C1(O)CCC(O)c2ncccc21 (centres unmarked)" target_system="rat P2X7 (Rattus norvegicus (Rat), UniProt Q64663)" parameter=pIC50 obs_value="> 6.00"

Now take the following compound into account.
(Q) Query the reported pIC50 for rat P2X7 (Rattus norvegicus (Rat), UniProt Q64663); item: `C[C@]1(O)CC[C@@](F)(C(=O)NCc2ccc(F)c(F)c2F)c2cccnc21`
(A) > 6.00

* * *

Recorded IC50 for the following compounds
biological target: human P2X7 (Homo sapiens (Human), UniProt Q99572); test: Human P2X7 functional assay (Ca2+ influx, Fluo-4, FDSS); details: antagonistic activity with respect to the human P2X7 receptor; BzATP final concentration 80 microM
Sequence (Q99572 whole entry): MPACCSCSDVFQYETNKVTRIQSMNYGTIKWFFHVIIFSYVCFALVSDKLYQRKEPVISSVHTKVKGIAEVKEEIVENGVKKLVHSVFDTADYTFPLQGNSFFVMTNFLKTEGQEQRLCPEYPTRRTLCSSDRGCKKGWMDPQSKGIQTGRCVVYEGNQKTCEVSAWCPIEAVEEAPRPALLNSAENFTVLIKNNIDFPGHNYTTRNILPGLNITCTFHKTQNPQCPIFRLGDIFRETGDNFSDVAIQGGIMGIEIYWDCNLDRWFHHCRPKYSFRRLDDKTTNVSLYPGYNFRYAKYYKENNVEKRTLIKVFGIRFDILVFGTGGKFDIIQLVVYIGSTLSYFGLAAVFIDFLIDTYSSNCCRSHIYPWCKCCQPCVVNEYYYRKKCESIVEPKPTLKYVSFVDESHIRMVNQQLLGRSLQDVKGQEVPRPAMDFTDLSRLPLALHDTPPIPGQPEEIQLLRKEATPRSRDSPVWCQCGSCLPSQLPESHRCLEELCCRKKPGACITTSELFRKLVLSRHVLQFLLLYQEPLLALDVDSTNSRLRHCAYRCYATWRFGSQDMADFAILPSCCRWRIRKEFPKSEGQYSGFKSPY

Before answering, review these 3 worked examples.
compound="Cc1cc(Cl)cc(Cl)c1CNC(=O)C1CC[C@H](O)c2ncccc21 (stereo partly shown)" parameter=IC50 obs_value="< 50 nM"
compound=O=C(NCc1ccc(F)cc1C(F)(F)F)[C@@H]1CC[C@H](O)c2ncccc21 parameter=IC50 obs_value="50 to 100 nM"
compound=O=C(NCc1c(F)cc(F)cc1F)[C@@H]1CC[C@H](O)c2ncccc21 parameter=IC50 obs_value="101 to 300 nM"

Now take the following compound into account.
(Q) Query the reported IC50 for human P2X7 (Homo sapiens (Human), UniProt Q99572); item: `O=C(NCc1c(Cl)cc(C(F)(F)F)cc1Cl)[C@@]1(F)CC[C@@H](O)c2ncccc21`
(A) < 50 nM

* * *

biological target: human P2X7 (Homo sapiens (Human)); assay: Human P2X7 functional assay (Ca2+ influx, Fluo-4, FDSS); conditions: antagonistic activity with respect to the human P2X7 receptor; BzATP final concentration 80 microM
parameter: IC50

compound=O=C(N[C@@H]1C[C@H]1c1ccccc1)[C@]1(F)CC[C@H](O)c2ncccc21 parameter=IC50 obs_value="301 to 1000 nM"
compound=O=C(NCc1ccc(Cl)cc1Cl)[C@]1(F)CC[C@@](O)(CS(=O)(=O)CCO)c2ncccc21 parameter=IC50 obs_value="< 50 nM"
compound=O=C(NCc1ccc(F)c(F)c1Cl)[C@]1(F)CC[C@@](O)(CO)c2ncccc21 parameter=IC50 obs_value="< 50 nM"
compound=O=C(NCc1ccc(Cl)cc1F)[C@@H]1CC[C@@H](O)c2ncccc21 parameter=IC50 obs_value="1000 to 3000 nM"
compound=O=C(NCc1c(F)cc(Cl)cc1F)[C@]1(F)CC[C@H](O)c2ncccc21 parameter=IC50 obs_value="< 50 nM"
compound="O=C(NCc1cccc(Cl)c1Cl)C1CC(O)c2ncccc21 (centres unmarked)" parameter=IC50 obs_value="50 to 100 nM"
compound=O=C1CO[C@@]2(CC[C@](F)(C(=O)NCc3ccc(Cl)cc3Cl)c3cccnc32)CN1 parameter=IC50 obs_value="1000 to 3000 nM"
compound=O=C(NCc1ccc(Cl)cc1Cl)[C@@]1(F)CC[C@@H](OCCO)c2ncccc21 parameter=IC50 obs_value="101 to 300 nM"

(Q) So what does the record say about IC50 for `O=C(NCc1cccc(Cl)c1Cl)[C@@]1(F)CC[C@H](F)c2ncccc21` ?
(A) 50 to 100 nM

(Q) Can you check `O=C(NCCOc1ccccc1)[C@]1(F)CC[C@H](O)c2ncccc21` next?
(A) 1000 to 3000 nM

(Q) Can you check `O=C(NCc1cc(F)c(F)cc1Cl)[C@]1(F)CC[C@H](O)c2ncccc21` next?
(A) < 50 nM

(Q) Can you check `O=C1CC[C@@](F)(C(=O)NCc2cccc(Cl)c2Cl)c2cccnc21` next?
(A) < 50 nM

(Q) Can you check `O=C(NCc1c(F)ccc(Cl)c1F)[C@]1(F)CC[C@H](O)c2ncccc21` next?
(A) < 50 nM

(Q) Can you check `O=C(NCc1ccc(F)c(F)c1F)[C@]1(F)CC[C@@](O)(CO)c2ncccc21` next?
(A) 101 to 300 nM

(Q) Can you check `O=C(NCc1ccc(Cl)cc1F)[C@]1(F)CC[C@](O)(CO)c2ncccc21` next?
(A) 1000 to 3000 nM

(Q) Can you check O=C(NCc1ccc(Cl)cc1Cl)C1(F)CC(O)(CO)c2ncccc21 (centres unmarked) next?
(A) 101 to 300 nM

(Q) Can you check `O=C1NC[C@]2(CC[C@@](F)(C(=O)NCc3ccc(Cl)cc3Cl)c3cccnc32)O1` next?
(A) 101 to 300 nM
